# TEST_SYSTEM: hERG (KCNH2) (Homo sapiens)
# Sequence (Q12809 whole entry): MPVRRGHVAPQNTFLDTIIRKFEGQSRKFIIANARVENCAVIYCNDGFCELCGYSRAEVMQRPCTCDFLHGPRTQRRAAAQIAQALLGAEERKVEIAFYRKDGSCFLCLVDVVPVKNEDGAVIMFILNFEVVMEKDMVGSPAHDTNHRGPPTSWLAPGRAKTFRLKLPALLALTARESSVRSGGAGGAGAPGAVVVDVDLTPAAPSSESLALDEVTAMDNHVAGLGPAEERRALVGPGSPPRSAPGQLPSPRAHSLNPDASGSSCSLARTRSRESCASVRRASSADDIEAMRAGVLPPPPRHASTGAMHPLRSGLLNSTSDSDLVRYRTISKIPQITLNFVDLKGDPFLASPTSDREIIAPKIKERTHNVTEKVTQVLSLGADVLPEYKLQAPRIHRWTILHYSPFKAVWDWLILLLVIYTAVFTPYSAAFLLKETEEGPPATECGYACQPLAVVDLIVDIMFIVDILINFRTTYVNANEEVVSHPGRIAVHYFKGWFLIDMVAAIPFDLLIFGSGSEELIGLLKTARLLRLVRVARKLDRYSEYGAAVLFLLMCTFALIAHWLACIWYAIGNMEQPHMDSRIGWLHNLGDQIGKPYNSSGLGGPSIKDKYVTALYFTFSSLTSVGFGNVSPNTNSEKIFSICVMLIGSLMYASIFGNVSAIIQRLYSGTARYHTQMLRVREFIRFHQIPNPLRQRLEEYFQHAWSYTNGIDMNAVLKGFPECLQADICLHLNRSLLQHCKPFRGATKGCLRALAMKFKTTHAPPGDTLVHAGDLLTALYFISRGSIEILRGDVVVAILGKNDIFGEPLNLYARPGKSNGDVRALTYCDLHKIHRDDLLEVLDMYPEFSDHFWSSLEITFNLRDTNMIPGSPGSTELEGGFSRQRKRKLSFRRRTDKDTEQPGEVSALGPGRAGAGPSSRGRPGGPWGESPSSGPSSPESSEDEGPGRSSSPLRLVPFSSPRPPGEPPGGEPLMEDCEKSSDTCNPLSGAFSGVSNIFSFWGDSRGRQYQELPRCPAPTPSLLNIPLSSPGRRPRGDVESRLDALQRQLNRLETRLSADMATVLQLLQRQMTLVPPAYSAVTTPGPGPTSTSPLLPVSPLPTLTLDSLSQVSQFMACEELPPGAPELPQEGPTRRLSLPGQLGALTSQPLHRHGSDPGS
# PROTOCOL_SUMMARY: Inhibition of human ERG at 10 uM by automated patch-clamp assay relative to control
Reported inhibition at 10 µM values for a set of molecules
Note: unit % is implicit; provide only the numeric part.

The cases that follow already have their inhibition at 10 µM on record.
Exercise: Form field - read-out: inhibition at 10 µM; system: hERG (KCNH2) (Homo sapiens); submitted item: C[C@@H](c1ccc2ccc(O[C@H]3CC[C@@H](C)CC3)c(C(F)(F)F)c2c1)N1C2CCCC1CC(C(=O)O)C2 (some centres undefined)
Solution: 24.4

Exercise: Similarly, C[C@@H](c1ccc2ccc(O[C@H]3CC[C@@H](C(F)(F)F)CC3)c(C(F)(F)F)c2c1)N1C2CCC1CC(C(=O)O)C2 (some centres undefined) ?
Solution: 21.3

Exercise: Similarly, C[C@H]1CC[C@@H](Oc2ccc3ccc(CN4C5CCCC4CC(C(=O)O)C5)cc3c2C(F)(F)F)CC1 (some centres undefined) ?
Solution: 84

Field: next molecule
Exercise: Form field - read-out: inhibition at 10 µM; system: hERG (KCNH2) (Homo sapiens); submitted item: C[C@H]1CC[C@@H](Oc2ccc3cc(CN4C5CCCC4CC(C(=O)O)C5)ccc3c2C(F)(F)F)CC1 (some centres undefined)
Solution: 52.7

Provenance of the data: ChEMBL document CHEMBL4825722
